Numbers sourced from patent US9771316B2.

- assayed system: human LAT-1 (Homo sapiens (Human), UniProt Q01650)
- Sequence (Q01650 whole entry): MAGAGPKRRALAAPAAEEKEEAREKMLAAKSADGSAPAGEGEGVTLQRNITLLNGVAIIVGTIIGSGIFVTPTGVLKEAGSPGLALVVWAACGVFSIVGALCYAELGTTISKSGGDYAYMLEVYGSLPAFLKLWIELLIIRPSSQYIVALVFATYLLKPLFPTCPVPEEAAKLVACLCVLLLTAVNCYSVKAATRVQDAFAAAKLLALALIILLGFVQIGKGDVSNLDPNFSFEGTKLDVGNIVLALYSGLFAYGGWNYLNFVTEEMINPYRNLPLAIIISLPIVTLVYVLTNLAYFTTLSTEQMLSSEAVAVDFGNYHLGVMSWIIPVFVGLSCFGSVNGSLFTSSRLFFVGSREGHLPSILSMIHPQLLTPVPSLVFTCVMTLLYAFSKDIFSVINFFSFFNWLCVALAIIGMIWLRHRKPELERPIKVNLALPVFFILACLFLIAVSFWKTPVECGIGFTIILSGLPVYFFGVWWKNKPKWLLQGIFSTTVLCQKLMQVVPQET
- Sequence (P08195 102-630 partner): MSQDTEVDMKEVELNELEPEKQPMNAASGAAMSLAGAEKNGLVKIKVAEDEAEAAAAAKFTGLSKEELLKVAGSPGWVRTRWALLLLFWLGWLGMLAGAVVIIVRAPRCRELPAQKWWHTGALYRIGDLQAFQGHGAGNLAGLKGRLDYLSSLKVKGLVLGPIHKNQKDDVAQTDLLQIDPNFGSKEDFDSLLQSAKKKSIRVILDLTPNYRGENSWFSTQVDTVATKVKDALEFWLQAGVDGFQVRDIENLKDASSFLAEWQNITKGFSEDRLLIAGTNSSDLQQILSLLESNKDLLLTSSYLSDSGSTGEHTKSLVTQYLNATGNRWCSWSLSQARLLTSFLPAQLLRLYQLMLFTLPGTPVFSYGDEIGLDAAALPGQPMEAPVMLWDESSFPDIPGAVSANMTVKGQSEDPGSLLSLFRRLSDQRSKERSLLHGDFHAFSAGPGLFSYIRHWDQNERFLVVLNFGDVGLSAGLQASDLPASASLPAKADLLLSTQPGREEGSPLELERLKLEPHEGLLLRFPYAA
- assay remarks: Inhibition of [14C]L-leucine uptake into human LAT-1 stably expressing HEK293 cell line (uptake buffer, 1 min)
- Format: cell-based
- condition summary: HEK293 human LAT-1 stably expressing cells; Na+-free HBSS pH7.4; [14C]L-leucine or alanine 1 μM, uptake 1 min; read-out: LAT-1 inhibitory activity/IC50
- Method: 1) LAT-1 Inhibitory Activity and LAT-2 Inhibitory Activity Inhibitory Effect on Uptake of Amino Acid into Human LAT-1 Stably Expressing Cell Line and LAT-2 Stably Expressing Cell Line […] The above-mentioned stably expressing cells were plated on a 24-well collagen plate at 1.2×10^5 cells/well, and, after 48 hr, the cells were washed (×3) with uptake buffer ([…] Hank's balanced salt solution (HBSS) pH7.4) kept at 37° C. […] The uptaken radioactivity was measured using the remaining solution. […]
pIC50: −log10 of the molar value. Structures can show the parent of a compound that is named as a salt.
endpoint label: pIC50

# pIC50 of NCCCCC(Oc1ccc(OC(F)(F)F)cc1)c1cccs1 (stereo not drawn) [Example 50] = 3.91

Lab note: measured pIC50 of NCCCC[C@H](Oc1ccc(C(F)(F)F)cc1)c1ccccc1 [Example 67, fumarate] was 4.02

The reported value for NCCCCCC(Oc1ccc(C(F)(F)F)cc1)c1ccccc1 (stereo not drawn) [Example 6] in terms of pIC50 is 4.05
